Hey, just so you know, these numbers are from PubChem BioAssay (NCI).

# measurement protocol: NCI Yeast Anticancer Drug Screen. Data for the sgs1 mgt1 strain (AID 161);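 further: 0% = growth of cultures given vehicle only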
# settings: S. cerevisiae sgs1 mgt1 strain, at 5.0 µM (retest, dose inferred, filed as 0.5), hits give high values
The panel holds about 79,000 compounds, 15% with a hit somewhere; the sample as a whole holds those more often.
Classification field: enter fulfilled for growth inhibition values not below 10%, not fulfilled for values below it.

// below: answered compounds
compound | category label
Cc1cccc(C)c1NC(=O)/C(CC(=O)CC(c1ccccc1)c1c(O)c2ccccc2oc1=O)=N/O (centres undefined) | fulfilled
CCC(=O)O[C@H]1CC[C@H]2[C@@H]3CCC4=C/C(=N/OC(=O)c5cccc6c(=O)c7ccccc7[nH]c56)CC[C@]4(C)[C@H]3CC[C@]12C | not fulfilled
CS(=O)(=O)[O-].CS(=O)(=O)[O-].NC1CCCCC1N.[Pt+4] (centres undefined) | fulfilled
CCC[CH2][Sn]1([CH2]CCC)[O]CC(c2ccccn2)C[O]1 | fulfilled
O=P(c1ccccc1)(c1ccccc1)c1ccccc1.O=P(c1ccccc1)(c1ccccc1)c1ccccc1.S=C=[N][Sn]([N]=C=S)([N]=C=S)[c]1ccccc1 | fulfilled

Decide: growth inhibition of COc1cccc2c1C(=O)c1c(O)c3c(c(O)c1C2=O)C[C@@](O)(C(C)=O)C[C@@H]3OC1CC(N)C(OC2CC(O)C(O)C(C)O2)C(C)O1 (some centres undefined) >= 10%?
fulfilled

Evaluate O=[N+]([O-])c1c(Cl)sc(Cl)c1[N+](=O)[O-] : growth inhibition at minimum 10%?
fulfilled

Is the recorded value of growth inhibition equal to or greater than 10% for this compound? CCC[CH2][Sn]([CH2]CCC)([S]C1=NCCS1)[S]C1=NCCS1
fulfilled

Form field: growth inhibition at least 10%? Entry: CC(C)CCCC(C)CCC1C(=O)NC(=O)NC1=O (centres undefined)
not fulfilled

---

# measurement protocol: NCI Yeast Anticancer Drug Screen. Data for the mec2-1 strain (AID 157)
# settings: S. cerevisiae mec2-1 strain, at 50.0 µM (retest, dose inferred, filed as 5.0), hits give high values
About 79,000 compounds went through this panel and 15% of them were active in at least one assay; those are over-represented in the sample as a whole.
reported metric: growth inhibition (%)
Expressed in %, but write only the number.

molecule | value observed
S=P(S)(Oc1ccccc1)Oc1ccccc1 | 18

Requested field: growth inhibition. Item: CCC1(O)C(=O)OCc2c1cc1n(c2=O)Cc2cc3cc(Cl)ccc3nc2-1 (stereo not given)
88

Which growth inhibition is reported for this molecule? COC(=O)C1=C(C(=O)OC)C2OC1c1cc3ccccc3cc12
100

---

# growth inhibition values compiled below
# measurement protocol: NCI Yeast Anticancer Drug Screen. Data for the wt1 strain (AID 149);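 further: 0% = growth of vehicle-treated wt1 cultures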
# settings: S. cerevisiae wt1 strain (SPY 50644) growth inhibition; at 3.7 µM; hits give high values
# Procedure: Growth inhibition of yeast strains with defined genetic alterations is measured as a screen for potential anti-cancer activity. Selected strains with alterations in DNA damage repair or cell cycle control were exposed to compounds and growth inhibition was measured relative to vehicle treated controls. The strain used in this assay is wt1
Compounds without any hit were thinned out: in the full panel of roughly 79,000, 15% have a hit.
# number only, unit % dropped from output

Below: 2 molecules and their reported growth inhibition.
molecule | units text | growth inhibition
N#CC(C#N)=Cc1ccc(C#N)cc1 | % | -2
Cc1cc[n+](C2=C(Nc3cccc(C(F)(F)F)c3)C(=O)c3ccccc3C2=O)cc1 | % | 2

Requested field: growth inhibition. Item: CC1CCC2(NC1)OC1CC3C4CCC5CC(OC6OC(CO)C(OC7OC(CO)C(O)C(OC8OCC(O)C(O)C8O)C7OC7OC(CO)C(O)C(O)C7O)C(O)C6O)CCC5(C)C4CCC3(C)C1C2C (stereo unspecified)
-15

I am curious: what growth inhibition value has been reported for CC1CN=C(Nc2ccccc2)S1 (stereo unspecified) ?
-5

Recorded growth inhibition for O=C(Nc1cc(Cl)ccc1Cl)C(Cl)(Cl)Cl , please?
2

I have this molecule here, O=C(COc1ccc(Cl)cc1Cl)NO , and I need its recorded growth inhibition.
-7
